# Protocol: qHTS of pediatric cancer cell lines to identify multiple opportunities for drug repurposing: Primary screen for DAOY cells (AID 1347090); note: nearly all actives have a fitted effect of over 55% in size
# Test context: DAOY medulloblastoma viability, CellTiter-Glo luminescence, 48 h; series mostly up to 46 µM
Records with an inconclusive call do not appear. Calls of active or inactive are those of the source. Calls come from the whole dose curve; as a rule, active = well fitted cell-killing curve with a large enough effect; inconclusive = small, poorly fitted or top-dose-only effect; inactive = flat fitted curve, though single readings scatter.
Classes to choose from: active, inactive

Below are worked cases with known answers.
Compound	Answer label
COC(=O)Nc1ccc(-c2nc(N3CCOCC3)c3cnn(C4CCN(C(=O)OC)CC4)c3n2)cc1	active
Cc1ccc(NC(=O)c2cccc(N(C)C)c2)cc1NC(=O)c1ccc(O)cc1	inactive
CN1CCN2c3ncccc3Cc3ccccc3C2C1 (stereo not given)	inactive
Clc1ccc(C2(c3ccc(-c4cn[nH]c4)cc3)CCNCC2)cc1	active
CC1=C(CC(=O)O)c2cc(F)ccc2C1=Cc1ccc(S(C)=O)cc1 (stereo not given)	active
CNC1[C@H](O)C(O[C@@H]2C(O)C(O[C@H]3O[C@H]([C@@H](C)NC)CC[C@H]3N)[C@@H](N)C[C@H]2N)OC[C@]1(C)O (stereo not given in full)	inactive
COc1ccc(-c2ccc3ncc4c(c3c2)n(-c2ccc(N3CCNCC3)c(C(F)(F)F)c2)c(=O)n4C)cn1	active
COc1ccc(C=CC(=O)Nc2ccccc2C(=O)O)cc1OC	inactive
Cn1c(=O)c(-c2c(Cl)cccc2Cl)cc2cnc(Nc3cccc(C(=O)O)c3)nc21	active

Hey, what did the test say about `COc1nccc(-c2c(-c3ccc(F)cc3)ncn2C2CCNCC2)n1` ?
inactive

----------
# Protocol: qHTS of pediatric cancer cell lines to identify multiple opportunities for drug repurposing: Primary screen for LAN-5 cells (AID 1347100)
# Test context: LAN-5 neuroblastoma viability, CellTiter-Glo luminescence, 48 h; series mostly up to 46 µM
Results filed as inconclusive are left out. Active and inactive are the calls of the source. The call rests on the fitted dose curve; in most records, active means well fitted cell-killing curve with a large enough effect; inconclusive means small, poorly fitted or top-dose-only effect; inactive means no such curve, though single readings can be large or run the other way.
Classes to choose from: active, inactive

Compound	Answer label
CCC(=O)NCC[C@@H]1CCc2ccc3c(c21)CCO3	inactive
OC(c1cc(C(F)(F)F)nc2c(C(F)(F)F)cccc12)C1CCCCN1 (stereo not drawn)	active
CC(C)=CCCC(C)=CCCC(C)=CCCC(C)=CCCC(C)=CCCC(C)=CCCC(C)=CCCC(C)=CCCC(C)=CCO	inactive
CCC(=C(CC)c1ccc(O)cc1)c1ccc(O)cc1	active
CC[C@H](CC#N)OC(=O)N[C@@H](C)c1cccc(NC(=O)Nc2ccc(-c3cnco3)c(OC)c2)c1	active

Hey, what did the test say about `c1ccc(-c2oc3ncnc(NC[C@@H]4CCCO4)c3c2-c2ccccc2)cc1` ?
active

Proceed to `CC(C)(OCc1nn(Cc2ccccc2)c2ccccc12)C(=O)O`
inactive

Proceed to `CCN(CC)CCCCNc1nc2cc(Cl)c(Cl)cc2nc1-c1ccc(-c2cccs2)s1`
active

Proceed to `CC[C@]1(O)C[C@H]2CN(CCC3=c4ccccc4=N[C]3[C@@](C(=O)OC)(c3cc4c(cc3OC)N(C)[C@H]3[C@@](O)(C(N)=O)[C@H](O)[C@]5(CC)C=CCN6CC[C@]43[C@@H]65)C2)C1`
active

Proceed to `C[C@@H]1[C@H](C)CC[C@]2(C(=O)O)CC[C@]3(C)C(=CC[C@@H]4[C@@]5(C)CC[C@H](O)C(C)(C)[C@H]5CC[C@]43C)[C@@H]12`
active

Proceed to `Nc1ncnc2c1ncn2[C@@H]1O[C@H](CO)[C@@H](O)[C@@H]1O`
active
